protocol.details: Highest frequency of moderate liver toxicity observed during clinical trials, expressed as a percentage. [column '% BIOL' in source]
experimental.parameters: human, Liver
result.type: Hepatotoxicity (moderate) (%)
Enter your answer as a number in %; do not include the unit.

Recorded Hepatotoxicity (moderate), per entry:
compound: CC1=C(/C=C/C(C)=C/C=C/C(C)=C/CO)C(C)(C)CCC1.O=C(O)Cc1cc(I)c(Oc2ccc(O)c(I)c2)c(I)c1
Hepatotoxicity (moderate), %: 0

compound: COc1nc(C)nc(Cl)c1N=C1NCCN1
Hepatotoxicity (moderate), %: 0

compound: CC(C)(C)NC(=O)[C@@H]1C[C@@H]2CCCC[C@@H]2CN1C[C@@H](O)[C@H](Cc1ccccc1)NC(=O)[C@H](CC(N)=O)NC(=O)c1ccc2ccccc2n1
Hepatotoxicity (moderate), %: 44

What does the record list as Hepatotoxicity (moderate) for CCO.CN1CCC[C@H]1c1cccnc1 ?
4

// repeat for Clc1ccc(C(Cn2ccnc2)OCc2ccsc2Cl)c(Cl)c1 (centres undefined) and report
5.3

// repeat for CNn1cc(C(=O)O)c(=O)c2cc(F)c(N3CCN(C)CC3)cc21 and report
5

// repeat for OC(CCN1CCCCC1)(c1ccccc1)C1CCCCC1 (centres undefined) and report
0

// repeat for Nc1nc(-c2ccccc2)c(Br)c(=O)[nH]1 and report
3.1

// repeat for CO/N=C(\C(=O)N[C@@H]1C(=O)N2C(C(=O)[O-])=C(C[N+]3(C)CCCC3)CS[C@H]12)c1csc(N)n1 and report
37.5

----------
experimental.parameters: human, serum
result.type: Hepatotoxicity (acute)
Write the value as a bare number.

molecule: CCNNC(=O)[C@@H]1[C@H](c2cc(OC)c(OC)c(OC)c2)c2cc3c(cc2[C@H](O)[C@H]1CO)OCO3 [MITOPODOZIDE]
Hepatotoxicity (acute): 0
//
molecule: COc1cc2nc(N3CCN(C(=O)C4COc5ccccc5O4)CC3)nc(N)c2cc1OC (stereo unspecified)
Hepatotoxicity (acute): 0
//
molecule: C=C(OC)C(=O)Nc1cc(OC)c(OC)cc1C(=O)O[C@H]1C[C@H](O[C@@H]2C(=O)C(NC(=O)OC)=C3/C(=C\CSSSC)[C@]2(O)C#C/C=C\C#C[C@@H]3O[C@@H]2O[C@H](C)[C@@H](NO[C@H]3C[C@H](O)[C@H](SC)[C@@H](C)O3)[C@H](O)[C@H]2O[C@H]2C[C@H](OC)[C@@H](NC(C)C)CO2)O[C@@H](C)[C@H]1O
Hepatotoxicity (acute): 0
//
molecule: COCC1=C(C(=O)OC(C)OC(=O)OC(C)C)N2C(=O)[C@@H](NC(=O)/C(=N\OC)c3csc(N)n3)[C@H]2SC1 (stereo partly specified)
Hepatotoxicity (acute): 0

What does the record list as Hepatotoxicity (acute) for CC(C)Nc1ncccn1 ?
13

// repeat for COC1=C(C(=O)O)N2C(=O)[C@@H](NC(=O)[C@H](N)C3=CCC=CC3)[C@H]2SC1 and report
0

----------
Some molecules, each annotated with its measured Hepatotoxicity (steatosis).
experimental.parameters: human
Write the value as a bare number.

Recorded Hepatotoxicity (steatosis), per entry:
molecule: CC(/C=C1\SC(=S)N(CC(=O)O)C1=O)=C\c1ccccc1
Hepatotoxicity (steatosis): 0

molecule: C=CC1=C(C(=O)O)N2C(=O)[C@@H](NC(=O)/C(=N\OCC(=O)O)c3csc(N)n3)[C@H]2SC1 [CEFIXIME]
Hepatotoxicity (steatosis): 0

molecule: CC[C@H]1OC(=O)[C@H](C)[C@@H](O[C@H]2C[C@@](C)(OC)[C@@H](O)[C@H](C)O2)[C@H](C)[C@@H](O[C@@H]2O[C@H](C)C[C@H](N(C)C)[C@H]2O)[C@](C)(O)C[C@@H](C)CN(C)[C@H](C)[C@@H](O)[C@]1(C)O [AZITHROMYCIN]
Hepatotoxicity (steatosis): 0

What does the record list as Hepatotoxicity (steatosis) for Nc1ncn([C@@H]2O[C@H](CO)[C@@H](O)[C@@H]2O)c(=O)n1 [FAZARABINE] ?
0

// repeat for Cc1c(Cl)cccc1Nc1ccccc1C(=O)O [TOLFENAMIC ACID] and report
0

// repeat for CN(C)CC/C=C1/c2ccccc2Sc2ccc(Cl)cc21 [CHLORPROTHIXENE] and report
0

// repeat for C#C[C@]1(O)CC[C@H]2[C@@H]3CCC4=CC(=O)CC[C@@H]4[C@H]3CC[C@@]21CC [LEVONORGESTREL] and report
0

Values from ChEMBL document CHEMBL3137667
